# Target Under Test: Apelin receptor (Homo sapiens) (UniProt P35414)
# Sequence (P35414 whole entry, looked up): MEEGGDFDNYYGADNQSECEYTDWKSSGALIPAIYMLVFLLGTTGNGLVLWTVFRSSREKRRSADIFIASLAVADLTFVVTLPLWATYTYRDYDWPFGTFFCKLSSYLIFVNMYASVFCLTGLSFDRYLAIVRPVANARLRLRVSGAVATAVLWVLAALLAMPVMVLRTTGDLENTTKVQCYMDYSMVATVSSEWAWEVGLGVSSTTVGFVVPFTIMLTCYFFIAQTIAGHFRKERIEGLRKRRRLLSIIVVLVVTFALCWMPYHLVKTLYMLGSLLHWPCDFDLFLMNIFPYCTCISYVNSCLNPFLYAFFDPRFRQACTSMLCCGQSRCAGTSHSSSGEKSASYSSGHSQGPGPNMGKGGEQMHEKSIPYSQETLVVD
# Assay Remarks: antagonists of human apelin receptor APJ, primary screen, CHO-K1 cells, beta-arrestin complementation, luminescence (AID 2521);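 further: cells challenged with 10 nM apelin-13 agonist together with compound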
# Conditions: at 20 µM
The whole screen tested about 330,000 compounds, of which about 1,100 (0.33%) were called active.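 How the source made its calls: active means inhibition above about 40% at 20 µM (limit read from the data); inactive means the rest.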 The sample holds actives, similar compounds and a random draw of the others, so the mix is not that of the screen.
Classes to choose from: Y = active, N = inactive

Solved entries (count: 8):
compound=COc1cccc(CC2(CO)CCN(Cc3cnc(-c4cccc(C)c4)nc3)CC2)c1 discrete_label=N
compound=COc1cccc(NC(=O)C/C(C)=N/NC(=O)C2CCCCC2)c1 discrete_label=N
compound=Cc1ccc(C(=O)COC(=O)c2cccc(N3C(=O)c4c(C)nc5ccccc5c4C3=O)c2)cc1C discrete_label=N
compound=Cc1c(C(=O)N2CCCc3ccccc32)oc2ccccc12 discrete_label=N
compound=O=C(c1ccccc1Cl)N(Cc1ccccc1F)N1C(=O)CCCC1=O discrete_label=N
compound="COc1cccc(CNC(=O)C(=O)NCCC2CCCCN2S(=O)(=O)c2ccc(C)cc2)c1 (stereo not drawn)" discrete_label=N
compound="CC1=C(C(=O)Nc2cc(C)ccn2)C(c2cnn(C)c2)C2=C(CC(c3ccccc3)CC2=O)N1 (stereo not drawn)" discrete_label=N
compound=COc1cccc(NC(C)=[N+](C)CCNS(=O)(=O)c2ccc(Cl)cc2)c1 discrete_label=N

Req: Given CC(C)(C)c1cc(C(=O)NN)n(Cc2ccc(Cl)cc2Cl)n1 , state the outcome it received in this test.
Resp: N

Req: Also need COc1ccc(C(=O)C[n+]2ccc(N)c(C)c2C)cc1 , thanks.
Resp: N

Req: How about this compound: COC(=O)c1cc(NC(=O)CN2CCC(C(N)=O)(N3CCCCC3)CC2)cc(C(=O)OC)c1
Resp: N

Req: Queued: O=C(CN(C(=O)CNC(=O)c1cccs1)c1cccc(F)c1)NC1CCCCC1
Resp: N

Req: And then Cc1cccc2cc3c(N)c(C(=O)N4CCCc5ccccc54)sc3nc12 , what is it?
Resp: Y
